Measured Mean IC50 (Control), RSV microneutralization by item
# Assay target: RSV F protein on respiratory syncytial virus (RSV-Long strain) (respiratory syncytial virus (Long strain)) (UniProt P12568)
# Sequence (P12568 26-574): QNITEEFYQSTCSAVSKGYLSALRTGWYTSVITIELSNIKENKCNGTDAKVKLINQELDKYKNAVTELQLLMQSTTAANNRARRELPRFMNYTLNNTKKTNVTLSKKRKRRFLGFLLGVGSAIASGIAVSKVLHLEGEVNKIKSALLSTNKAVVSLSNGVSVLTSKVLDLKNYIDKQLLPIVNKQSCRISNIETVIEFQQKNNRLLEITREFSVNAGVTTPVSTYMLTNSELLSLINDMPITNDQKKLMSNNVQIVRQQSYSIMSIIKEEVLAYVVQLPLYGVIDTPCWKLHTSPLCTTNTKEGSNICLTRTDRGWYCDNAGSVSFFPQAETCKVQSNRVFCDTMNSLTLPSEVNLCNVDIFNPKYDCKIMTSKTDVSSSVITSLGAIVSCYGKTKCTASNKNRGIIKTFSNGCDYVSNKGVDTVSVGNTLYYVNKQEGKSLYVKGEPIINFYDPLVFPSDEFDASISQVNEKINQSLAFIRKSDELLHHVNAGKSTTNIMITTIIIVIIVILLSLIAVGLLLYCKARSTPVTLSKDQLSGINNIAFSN
# Assay: cell-based or functional assay
Hi! Could you send only the number? It should be in mg/L, unit omitted.

{"Binder": "A17d4(1) monoclonal antibody (antibody, V domains shown) VH: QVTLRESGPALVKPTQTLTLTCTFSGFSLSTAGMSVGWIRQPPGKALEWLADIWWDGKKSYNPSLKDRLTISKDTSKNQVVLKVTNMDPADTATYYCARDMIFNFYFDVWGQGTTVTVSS VL: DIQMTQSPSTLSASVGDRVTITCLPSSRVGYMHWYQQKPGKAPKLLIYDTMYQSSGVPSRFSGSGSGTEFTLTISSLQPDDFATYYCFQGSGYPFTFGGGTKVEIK", "Endpoint unit": "mg/L", "Value observed": 0.0354}
{"Binder": "A1e9 Fab fragment (Fab, V domains shown) VH: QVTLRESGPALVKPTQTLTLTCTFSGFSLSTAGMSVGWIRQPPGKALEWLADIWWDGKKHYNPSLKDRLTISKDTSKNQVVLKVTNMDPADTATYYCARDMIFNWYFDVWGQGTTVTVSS VL: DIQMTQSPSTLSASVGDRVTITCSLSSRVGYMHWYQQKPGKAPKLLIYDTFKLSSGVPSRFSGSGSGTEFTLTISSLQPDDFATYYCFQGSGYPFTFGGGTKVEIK", "Endpoint unit": "mg/L", "Value observed": 0.125}
{"Binder": "A12a6 Fab fragment (Fab, V domains shown) VH: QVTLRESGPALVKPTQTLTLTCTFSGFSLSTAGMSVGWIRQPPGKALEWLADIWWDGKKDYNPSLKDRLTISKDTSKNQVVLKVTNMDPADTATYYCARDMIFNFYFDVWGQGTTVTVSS VL: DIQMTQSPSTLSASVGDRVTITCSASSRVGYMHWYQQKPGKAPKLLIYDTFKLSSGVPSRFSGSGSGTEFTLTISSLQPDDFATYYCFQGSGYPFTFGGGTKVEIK", "Endpoint unit": "mg/L", "Value observed": 0.031}
{"Binder": "P12f4 monoclonal antibody (antibody, V domains shown) VH: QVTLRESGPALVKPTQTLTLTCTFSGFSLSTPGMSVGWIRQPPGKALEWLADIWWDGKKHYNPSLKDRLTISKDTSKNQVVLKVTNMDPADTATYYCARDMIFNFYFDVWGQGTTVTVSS VL: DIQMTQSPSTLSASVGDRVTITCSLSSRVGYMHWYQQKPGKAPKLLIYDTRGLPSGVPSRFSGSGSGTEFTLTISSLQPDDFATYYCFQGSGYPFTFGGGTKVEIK", "Endpoint unit": "mg/L", "Value observed": 0.0235}
{"Binder": "A12a6 monoclonal antibody (antibody, V domains shown) VH: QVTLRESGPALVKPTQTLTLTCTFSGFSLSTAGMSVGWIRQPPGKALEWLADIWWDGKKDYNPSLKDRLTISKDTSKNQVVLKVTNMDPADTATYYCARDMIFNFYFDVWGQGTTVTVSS VL: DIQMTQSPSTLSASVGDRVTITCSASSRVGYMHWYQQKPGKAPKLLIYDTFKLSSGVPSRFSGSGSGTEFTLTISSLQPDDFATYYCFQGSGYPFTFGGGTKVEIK", "Endpoint unit": "mg/L", "Value observed": 0.0354}
{"Binder": "A13c4 Fab fragment (Fab, V domains shown) VH: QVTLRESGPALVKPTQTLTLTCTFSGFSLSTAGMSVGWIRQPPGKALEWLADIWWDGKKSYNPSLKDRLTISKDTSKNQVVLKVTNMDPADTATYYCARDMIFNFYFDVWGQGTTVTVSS VL: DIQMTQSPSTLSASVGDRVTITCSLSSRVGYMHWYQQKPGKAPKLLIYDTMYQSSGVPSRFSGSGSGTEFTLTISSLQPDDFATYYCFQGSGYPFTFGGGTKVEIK", "Endpoint unit": "mg/L", "Value observed": 0.0258}

Provide only the value of recorded Mean IC50 (Control), RSV microneutralization for A4B4 Fab fragment (Fab, V domains shown) VH: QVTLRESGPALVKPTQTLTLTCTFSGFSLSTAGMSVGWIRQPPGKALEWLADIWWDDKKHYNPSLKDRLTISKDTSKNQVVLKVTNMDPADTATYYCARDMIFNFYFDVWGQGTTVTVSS VL: DIQMTQSPSTLSASVGDRVTITCSASSRVGYMHWYQQKPGKAPKLLIYDTFFLDSGVPSRFSGSGSGTEFTLTISSLQPDDFATYYCFQGSGYPFTFGGGTKVEIK
0.0411

Provide only the value of recorded Mean IC50 (Control), RSV microneutralization for A4B4 monoclonal antibody (antibody, V domains shown) VH: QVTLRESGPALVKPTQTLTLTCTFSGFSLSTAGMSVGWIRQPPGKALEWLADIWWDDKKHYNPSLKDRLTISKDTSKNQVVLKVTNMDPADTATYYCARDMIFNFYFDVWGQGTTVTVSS VL: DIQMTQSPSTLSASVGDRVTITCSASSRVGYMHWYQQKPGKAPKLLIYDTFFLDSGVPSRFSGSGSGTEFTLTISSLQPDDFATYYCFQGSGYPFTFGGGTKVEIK
0.0154

Provide only the value of recorded Mean IC50 (Control), RSV microneutralization for A17d4(1) Fab fragment (Fab, V domains shown) VH: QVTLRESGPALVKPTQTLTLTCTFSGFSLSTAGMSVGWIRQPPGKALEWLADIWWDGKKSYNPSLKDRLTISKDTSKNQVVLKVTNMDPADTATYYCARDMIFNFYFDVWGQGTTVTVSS VL: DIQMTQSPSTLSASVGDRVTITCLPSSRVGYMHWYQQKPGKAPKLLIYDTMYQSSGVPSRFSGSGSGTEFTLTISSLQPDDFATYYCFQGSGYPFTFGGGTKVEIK
0.0171
